Data credit: patent US9376380B2

# Lookup of reported pKi keyed by entry
target: CB1 receptor (Homo sapiens, UniProt P21554); construct: host or cells: cell membrane preparations; experiment: [3H]CP-55,940 radioligand competition binding, CB1; conditions: [3H]CP-55,940 displacement; read-out: Ki (CB1)
Sequence (P21554 whole entry): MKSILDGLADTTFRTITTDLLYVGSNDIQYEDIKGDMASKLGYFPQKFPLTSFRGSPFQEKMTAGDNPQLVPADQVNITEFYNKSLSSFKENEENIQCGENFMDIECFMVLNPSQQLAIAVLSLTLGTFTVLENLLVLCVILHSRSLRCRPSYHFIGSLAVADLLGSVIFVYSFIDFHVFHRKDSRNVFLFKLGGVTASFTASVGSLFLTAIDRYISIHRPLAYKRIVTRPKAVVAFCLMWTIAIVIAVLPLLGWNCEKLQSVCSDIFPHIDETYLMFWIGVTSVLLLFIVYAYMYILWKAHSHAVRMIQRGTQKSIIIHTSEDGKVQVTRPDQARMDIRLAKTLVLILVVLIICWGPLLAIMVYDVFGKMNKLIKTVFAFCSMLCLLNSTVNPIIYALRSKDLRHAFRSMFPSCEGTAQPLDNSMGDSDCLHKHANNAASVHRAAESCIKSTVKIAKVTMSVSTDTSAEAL
Scale explanation: pKi corresponds to minus log10 of a concentration expressed in moles per litre.

(Q) Could you tell me which pKi is on file for Cc1ccc(C(NC(=O)Cc2ccccc2)NC(=O)Cc2ccccc2)cc1 ?
(A) 6.96

(Q) Could you tell me which pKi is on file for CCN(CC)c1ccc(CN(C23CC4CC(CC(C4)C2)C3)S(=O)(=O)c2ccc(F)cc2)cc1 ?
(A) 5.37
